Molecular target: NEDD8/NEDD8-conjugating enzyme Ubc12 (Homo sapiens, UniProt P61081+Q15843)
Test: Inhibition of GST-tagged recombinant human UBE2M/His-tagged human NEDD8 interaction by HTRF assay relative to control
Assay type: protein-complex assay
Starred links: 1 amine or outer side, 2 acyl side, 3 side chain; linkers in the order of their positions; H or OH if unused. Positions of bridges follow the written chain, without caps; N, C: chain ends. Non-standard residues stand in square brackets, D forms with d. Residues, ends and D or L forms follow the SMILES beside them. *: point of attachment. hTyr(3S-OH,4S-OH,3'-OSO3H) = N[C@H](C(=O)O)[C@H](O)[C@@H](O)c1ccc(O)c(OS(=O)(=O)O)c1; Orn(4R-OH,5R-OH) = O=C([C@H](C[C@@H](O)[C@@H](O)N[*:3])N[*:1])[*:2]; Pro(3S-OH,4S-Me) = C[C@H]1CN[C@H](C(=O)O)[C@H]1O; X1 = CCCCCOc1ccc(-c2cc(-c3ccc(C(=O)*)cc3)no2)cc1; Gln(3R-OH) = NC(=O)C[C@@H](O)[C@H](N)C(=O)O; Hyp = O=C(O)[C@@H]1C[C@@H](O)CN1
Measured Endpoint: inhibition (%)
Reply with just the number (in %).

Worked cases, inhibition given:
| Molecule | inhibition, % |
| --- | --- |
| CN(C)[C@@H]1C(O)=C(C(N)=O)C(=O)[C@@]2(O)C(O)=C3C(=O)c4c(O)cccc4[C@@](C)(O)[C@H]3C[C@@H]12 | 56.4 |
| CCCCCCCCCCCC[N+](C)(C)CCOc1ccccc1 | 56.5 |
| C[C@H]1c2cccc(O)c2C(=O)C2=C(O)[C@]3(O)C(=O)C(C(N)=O)=C(O)[C@@H](N(C)C)[C@@H]3[C@@H](O)[C@@H]21 | 78.1 |

Query :: Given CN(C)c1cc(NC(=O)CNC(C)(C)C)c(O)c2c1C[C@H]1C[C@H]3[C@H](N(C)C)C(O)=C(C(N)=O)C(=O)[C@@]3(O)C(O)=C1C2=O , state its recorded inhibition.
Result :: 69.3

Query :: Given CCCCCOc1ccc(-c2cc(-c3ccc(C(=O)N[C@H]4C[C@@H](O)[C@@H](O)NC(=O)[C@@H]5[C@@H](O)[C@@H](C)CN5C(=O)[C@H]([C@H](O)CC(N)=O)NC(=O)[C@H]([C@H](O)[C@@H](O)c5ccc(O)c(OS(=O)(=O)O)c5)NC(=O)[C@@H]5C[C@@H](O)CN5C(=O)[C@H]([C@@H](C)O)NC4=O)cc3)no2)cc1 [MICAFUNGIN] (X1-[Orn(4R-OH,5R-OH)]T[Hyp][hTyr(3S-OH,4S-OH,3'-OSO3H)][Gln(3R-OH)][Pro(3S-OH,4S-Me)]; lactam 1-C) , state its recorded inhibition.
Result :: 66.2

---

Target: NEDD8/NEDD8-conjugating enzyme Ubc12 (Homo sapiens, UniProt P61081+Q15843)
Assay: Inhibition of GST-tagged recombinant human UBE2M/His-tagged human NEDD8 interaction by HTRF assay relative to control
Assay type: protein-complex assay
Could you label it 1.0 if measured inhibition is 60% or higher, and 0.0 otherwise?

| Structure Notation | Discrete Label |
| --- | --- |
| CN(C)[C@@H]1C(O)=C(C(N)=O)C(=O)[C@@]2(O)C(O)=C3C(=O)c4c(O)cccc4[C@@](C)(O)[C@H]3[C@H](O)[C@@H]12 | 1.0 |
| CCCCCCCCOc1ccccc1C(=O)Nc1ccc(C(=O)OCC[N+](C)(CC)CC)cc1 | 1.0 |

Query :: Please tell me: is the compound COc1cccc2c1C(=O)c1c(O)c3c(c(O)c1C2=O)C[C@@](O)(C(=O)CO)C[C@@H]3O[C@H]1C[C@H](N)[C@H](O)[C@H](C)O1 at or over 60% in terms of inhibition?
Result :: 1.0

Query :: Please tell me: is the compound Cc1cccc(N(C)C(=S)Oc2ccc3ccccc3c2)c1 at or over 60% in terms of inhibition?
Result :: 0.0

Query :: Please tell me: is the compound Cc1cc(Nc2ncc(Cl)c(Nc3ccccc3S(=O)(=O)C(C)C)n2)c(OC(C)C)cc1C1CCNCC1 at or over 60% in terms of inhibition?
Result :: 1.0

---

Test: Inhibition of His-tagged recombinant human NAE expressed in Escherichia coli (BL21) by HTRF assay
Measured Endpoint: pIC50
// pIC50 here means minus log10 of the molar concentration (mol/L)

Query :: Given NS(=O)(=O)OC[C@@H]1C[C@@H](n2ccc3c(N[C@H]4CCc5ccccc54)ncnc32)C[C@@H]1O [PEVONEDISTAT] , state its recorded pIC50.
Result :: 8.24
